Quick list: IC50 per entry.
target-system: PARP-1 enzyme (Homo sapiens)
Construct: made in house
Sequence (P09874 whole entry): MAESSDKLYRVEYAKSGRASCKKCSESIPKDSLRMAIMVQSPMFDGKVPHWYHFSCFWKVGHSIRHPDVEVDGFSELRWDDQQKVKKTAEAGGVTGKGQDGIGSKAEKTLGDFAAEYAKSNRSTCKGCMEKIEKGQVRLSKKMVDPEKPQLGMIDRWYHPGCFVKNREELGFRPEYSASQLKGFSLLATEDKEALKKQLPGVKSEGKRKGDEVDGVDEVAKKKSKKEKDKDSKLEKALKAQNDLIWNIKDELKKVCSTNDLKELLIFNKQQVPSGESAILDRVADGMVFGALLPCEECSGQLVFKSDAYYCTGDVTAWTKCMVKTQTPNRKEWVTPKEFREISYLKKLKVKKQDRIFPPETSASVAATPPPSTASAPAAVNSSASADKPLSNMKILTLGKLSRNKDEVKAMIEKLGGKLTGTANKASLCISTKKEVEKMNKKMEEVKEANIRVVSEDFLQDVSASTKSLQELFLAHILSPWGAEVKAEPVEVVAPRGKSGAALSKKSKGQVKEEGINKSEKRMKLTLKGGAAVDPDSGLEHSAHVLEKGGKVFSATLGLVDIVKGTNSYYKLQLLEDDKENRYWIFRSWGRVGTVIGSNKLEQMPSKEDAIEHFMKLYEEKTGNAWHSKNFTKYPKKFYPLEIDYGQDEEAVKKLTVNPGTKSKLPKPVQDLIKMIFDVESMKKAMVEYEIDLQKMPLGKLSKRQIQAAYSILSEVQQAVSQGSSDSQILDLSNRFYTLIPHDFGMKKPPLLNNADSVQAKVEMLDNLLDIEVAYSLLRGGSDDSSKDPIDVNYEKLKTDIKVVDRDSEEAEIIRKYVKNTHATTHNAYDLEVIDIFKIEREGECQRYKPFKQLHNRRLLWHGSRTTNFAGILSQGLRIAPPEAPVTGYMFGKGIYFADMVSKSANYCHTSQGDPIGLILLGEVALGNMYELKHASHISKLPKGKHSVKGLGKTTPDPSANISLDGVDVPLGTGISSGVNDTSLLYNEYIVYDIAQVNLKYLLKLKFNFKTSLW
test-summary: In vitro filtration assay for PARP-1 inhibitory activity
Format: biochemical
test-settings: [32P]-NAD as ADP-ribosyl donor, histones, nicked DNA; read-out: In vitro filtration assay pIC50 (converted)
Write your answer as a measured quantity: the number, then the unit.

CCc1cc2cc(C(=O)CN(C)C)ccc2[nH]c1=O
2590 nM
CCc1nc2cc(C(C(C)C)n3cncn3)ccc2[nH]c1=O (stereo not shown)
2280 nM
Cc1cc2cc(C(NCCCN3CCCCC3)C(C)C)ccc2[nH]c1=O (stereo not shown)
3620 nM

Data request: Checklist item: IC50 tested on PARP-1 enzyme (Homo sapiens), entry Cc1cc2cc(C(C(C)C)n3ccnc3)ccc2[nH]c1=O (stereo not shown) , value?
Data returned: 5350 nM

Data request: Checklist item: IC50 tested on PARP-1 enzyme (Homo sapiens), entry Cc1cc2cc(C(C)NC=O)ccc2[nH]c1=O (stereo not shown) , value?
Data returned: 6370 nM

Data request: Checklist item: IC50 tested on PARP-1 enzyme (Homo sapiens), entry CCc1cc2cc(C(O)CN(C)C)ccc2[nH]c1=O (stereo not shown) , value?
Data returned: 773 nM

Data request: Checklist item: IC50 tested on PARP-1 enzyme (Homo sapiens), entry CCc1cc2cc(C(O)C3CC=CCC3)ccc2[nH]c1=O (stereo not shown) , value?
Data returned: 1470 nM
